Below, each of the compounds is paired with its reported inhibition value.
- experimental target: Glucose transporter (Leishmania mexicana)
- assay method text: ST_JUDE_LEISH: Cytotoxicity at 2uM final concentration against transgenic Leishmania Mexicana promastigotes LmGT2 that are glucose transport deficient and complemented with the L. Mexicana glucose transporter 2. Activity is measured by DNA content using SYBR green in vitro
- Format: functional

{"compound": "Cc1ccccc1C1CCN(c2ccc(C(=O)NC3CC3)cn2)CC1", "experimental target": "Glucose transporter (Leishmania mexicana)", "inhibition / %": 0.57}
{"compound": "O=C(Nc1ccc(N2CCC(Nc3ccccn3)CC2)cc1)c1cnc(Cl)c(Cl)c1", "experimental target": "Glucose transporter (Leishmania mexicana)", "inhibition / %": 4.85}
{"compound": "CC(C)(C)OC(=O)NCC(=O)N(Cc1ccccc1)Cc1ccccc1", "experimental target": "Glucose transporter (Leishmania mexicana)", "inhibition / %": 3.73}
{"compound": "O=C(c1ccc([N+](=O)[O-])o1)N1CCN(c2nc3c(F)cc(F)cc3s2)CC1", "experimental target": "Glucose transporter (Leishmania mexicana)", "inhibition / %": 7.31}
{"compound": "Cc1cc(C(=O)NC2CCN(Cc3ccccc3)CC2)ccc1-c1nc2ccc(C(F)(F)F)cc2[nH]1", "experimental target": "Glucose transporter (Leishmania mexicana)", "inhibition / %": 3.25}
{"compound": "Cc1cc(Oc2cc(NC(=O)c3sc4ncn(Cc5ccccc5F)c(=O)c4c3C)cc([N+](=O)[O-])c2)ccc1Cl", "experimental target": "Glucose transporter (Leishmania mexicana)", "inhibition / %": 1.68}
{"compound": "CCOc1ccc2nc(NC(=O)c3csnn3)sc2c1", "experimental target": "Glucose transporter (Leishmania mexicana)", "inhibition / %": -1.06}
{"compound": "COc1ccc2ncc(Cl)c([C@H](O)CN3CCC(NCc4cc5c(cn4)OCCO5)CC3)c2c1", "experimental target": "Glucose transporter (Leishmania mexicana)", "inhibition / %": 6.66}
{"compound": "O=C(Nc1ccon1)c1cc(-c2cccnc2)nc2ccc(Cl)cc12", "experimental target": "Glucose transporter (Leishmania mexicana)", "inhibition / %": 3.02}
{"compound": "Cn1ccnc1-c1nc2ccccn2c1NCC(=O)Nc1ccccc1N1CCCCC1", "experimental target": "Glucose transporter (Leishmania mexicana)", "inhibition / %": 0.02}
{"compound": "CS(=O)(=O)NCCCNCc1cccc(-c2cccc(-c3nc4cc(F)ccc4[nH]3)c2)c1", "experimental target": "Glucose transporter (Leishmania mexicana)", "inhibition / %": -0.27}
{"compound": "COc1cc(NC(=O)N2CCOC(CCN3CCC4(CCc5ccccc54)CC3)(c3ccc(Cl)c(Cl)c3)C2)cc(OC)c1 (stereo unspecified)", "experimental target": "Glucose transporter (Leishmania mexicana)", "inhibition / %": 1.53}
{"compound": "O=C(Nc1ccc(S(=O)(=O)N2CCCCCC2)cc1)c1cc(-c2ccccc2O)n[nH]1", "experimental target": "Glucose transporter (Leishmania mexicana)", "inhibition / %": 8.68}
{"compound": "O=C(NCc1ccccn1)C(c1cc2ccccc2o1)N1CCN(C(c2ccccc2)c2ccccc2)CC1 (stereo unspecified)", "experimental target": "Glucose transporter (Leishmania mexicana)", "inhibition / %": 2.55}
{"compound": "CCN1CCN(c2cc(C)c3cc(NC(=O)c4ccc([N+](=O)[O-])c(C)c4)ccc3n2)CC1", "experimental target": "Glucose transporter (Leishmania mexicana)", "inhibition / %": 7.26}
{"compound": "CC(C)c1ccc(N(CC(=O)N/N=C/c2ccc(C(F)(F)F)cc2)S(=O)(=O)c2ccc(C(F)(F)F)cc2)cc1", "experimental target": "Glucose transporter (Leishmania mexicana)", "inhibition / %": 3.25}
{"compound": "CCNCc1cccc(-c2ccc3ccnc(N)c3c2)c1", "experimental target": "Glucose transporter (Leishmania mexicana)", "inhibition / %": 4.03}
{"compound": "Cc1cccc2nc(-c3cccc(-c4ccc(NC(=O)c5ccoc5)cc4)c3)[nH]c12", "experimental target": "Glucose transporter (Leishmania mexicana)", "inhibition / %": -1.09}
{"compound": "Cc1ccc(S(C)(=O)=O)cc1/C=C/C(=O)O", "experimental target": "Glucose transporter (Leishmania mexicana)", "inhibition / %": 10.4}
{"compound": "O=C1COc2ccccc2N1C/C=C(\\CN1CCC(c2ccccc2)CC1)c1cc(Cl)cc(Cl)c1", "experimental target": "Glucose transporter (Leishmania mexicana)", "inhibition / %": 1.69}
{"compound": "Cc1cccc2nc(-c3ccc(-c4ccc(CN5CCCC(N)C5)cc4)s3)[nH]c12 (stereo unspecified)", "experimental target": "Glucose transporter (Leishmania mexicana)", "inhibition / %": 0.74}
{"compound": "Cc1ccc(NC(=O)c2ccc(N3CCN(c4ccncc4)CC3)cn2)cc1F", "experimental target": "Glucose transporter (Leishmania mexicana)", "inhibition / %": 102}
{"compound": "COc1cc(N)c(Cl)cc1C(=O)NC1CCC(NCC2CCCCC2)CC1 (stereo unspecified)", "experimental target": "Glucose transporter (Leishmania mexicana)", "inhibition / %": 1.15}
{"compound": "N#Cc1cc(C(=O)c2cc(Cl)ccc2O)cn(-c2cccc(C(F)(F)F)c2)c1=O", "experimental target": "Glucose transporter (Leishmania mexicana)", "inhibition / %": 5.33}
{"compound": "O=C(NC1CCN(Cc2ccccc2)CC1)c1ccc(CNC2CCN(Cc3ccccc3)CC2)cc1", "experimental target": "Glucose transporter (Leishmania mexicana)", "inhibition / %": 4.42}
{"compound": "CC1(C)NC(N)=NC(=N)N1OCCSCCON1C(=N)N=C(N)NC1(C)C", "experimental target": "Glucose transporter (Leishmania mexicana)", "inhibition / %": -0.26}
{"compound": "O=C(CCCCCNC(=O)c1ccc(O)c(-c2ccc(Cl)c(Cl)c2)c1)NCCc1ccc(Cl)c(Cl)c1", "experimental target": "Glucose transporter (Leishmania mexicana)", "inhibition / %": 0.33}
{"compound": "COc1ccc(C(=O)Nc2ccc(Cl)cc2C(=O)Nc2ccncc2)cc1", "experimental target": "Glucose transporter (Leishmania mexicana)", "inhibition / %": -0.77}
{"compound": "NC1=NC2(CCCCC2)N(OCCCCCCc2ccccc2)C(N)=N1", "experimental target": "Glucose transporter (Leishmania mexicana)", "inhibition / %": 0.69}
{"compound": "C#CCCC(=O)Nc1cccc(-c2cccc(-c3nc4cc(C(F)(F)F)ccc4[nH]3)c2)c1", "experimental target": "Glucose transporter (Leishmania mexicana)", "inhibition / %": 1.42}
{"compound": "CC(C)CC(C)NC(=O)C1Cc2c([nH]c3cc(Cl)ccc23)C2(CCN(CCc3ccccc3)CC2)N1 (stereo unspecified)", "experimental target": "Glucose transporter (Leishmania mexicana)", "inhibition / %": 4.34}
{"compound": "COc1ccc(CN2CCC(CNCC(c3ccccc3)c3ccccc3)CC2)cc1", "experimental target": "Glucose transporter (Leishmania mexicana)", "inhibition / %": 2.23}
{"compound": "Cc1nnc(-c2cccc(Nc3ccnc4cc(-c5nccs5)ccc34)c2)o1", "experimental target": "Glucose transporter (Leishmania mexicana)", "inhibition / %": 9.75}
{"compound": "Cc1ccc(NC(=O)Nc2ccc(S(=O)(=O)c3ccc(NC(=O)Nc4ccc(C)c(Cl)c4)cc3)cc2)cc1Cl", "experimental target": "Glucose transporter (Leishmania mexicana)", "inhibition / %": 1.78}
{"compound": "CCNc1cc(-c2cccc(OC)c2)nc(Nc2ccc(F)cc2)n1", "experimental target": "Glucose transporter (Leishmania mexicana)", "inhibition / %": 2.87}
{"compound": "CCC(CC)C(CC(=O)NC(C)(C)CCc1ccccc1OC)Nc1ccc(C#N)c2ccccc12 (stereo unspecified)", "experimental target": "Glucose transporter (Leishmania mexicana)", "inhibition / %": 3.55}
